The following molecules are listed with their measured growth inhibition values.
# assay-comment: NCI Yeast Anticancer Drug Screen. Data for the mlh1 rad18 strain (AID 175)
# condition-description: S. cerevisiae mlh1 rad18 strain growth inhibition; at 50.0 µM; hits give high values
Compounds without any hit were thinned out: in the full panel of roughly 79,000, 15% have a hit.
# value in %; strip the unit string

Record excerpt, results attached:
> print(dat)
                                   molecule  value.units  test.value
1         CCOC(=O)C(/C=C/C(C)C)(CC)C(=O)OCC            %        24.4
2  Cc1ccc(S(=O)(=O)N/N=C/C(C)(c2ccccc2)c2ccccc2)cc1            %        47.8

[ask] Give its growth inhibition value. Item: C[N+](C)(N)Cc1csc(-c2ccc(Cl)cc2)n1
[reply] -10.5

[ask] Again, but for O=NN(CC1(O)OCC(O)C(O)C1O)C(Cc1c[nH]c2ccccc12)C(=O)O (stereo unspecified)
[reply] -4.8

[ask] Repeat with COc1cccc(/C=C2\SC(=S)N(/C=C3\C(=O)Oc4ccccc4C3=O)C2=O)c1O
[reply] 23.6

[ask] Try the molecule CCC1(C)CC(C)(C)c2ccc(C)cc21 (stereo unspecified)
[reply] -2.25

----------
# assay-comment: NCI Yeast Anticancer Drug Screen. Data for the mec2-1 strain (AID 157)
# condition-description: S. cerevisiae mec2-1 strain, at 50.0 µM, hits give high values
This is part of a sample that, as a whole, favours compounds with a hit. Of some 79,000 tested, about 15% had one in any assay.
attribute-measured: growth inhibition (%)
Write the number in % without appending the unit.

Examples with their reported growth inhibition follow.
> print(dat)
                                   molecule  test.value
1  C[C@H]1O[C@@H](C(C)(C)C)OC(=O)[C@@H]1C(OC(=O)c1ccccc1)c1cccc2ccccc12 (stereo partly specified)        3.15
2    O=C([O-])[C+](C=Cc1cccc2ccccc12)C(=O)O        -5.4
3               FC(F)(F)c1nnc(-c2ccccc2)nn1       -16.1
4     NC1=Nc2ccccc2Sc2nnc(-c3ccc(Cl)cc3)n21       -3.25
5               c1ccc(Cc2c[nH]c3ccccc23)cc1       -0.05

[ask] What does the data say about its growth inhibition? Entry: Cc1cc2c(c(C(=O)NCCC(=O)O)c1)Oc1c(cc(C)cc1C(=O)NCCC(=O)O)S2
[reply] -13.6

----------
# assay-comment: NCI Yeast Anticancer Drug Screen. Data for the cln2 rad14 strain (AID 165);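 further: 0% = growth equal to vehicle treated cultures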
# condition-description: S. cerevisiae cln2 rad14 strain, at 50.0 µM, hits give high values
# Experimental: Growth inhibition of yeast strains with defined genetic alterations is measured as a screen for potential anti-cancer activity. Selected strains with alterations in DNA damage repair or cell cycle control were exposed to compounds and growth inhibition was measured relative to vehicle treated controls. The strain used in this assay is cln2 rad14
The panel holds about 79,000 compounds, 15% with a hit somewhere; the sample as a whole holds those more often.
attribute-measured: growth inhibition (%)
Numeric only. Scale: %

> print(dat)
                                   molecule  test.value
1  CCC1(C#CCN2C(=O)c3ccccc3C2=O)C=CC2(CC1)OCCO2 (configuration not stated)         0.6
2                  CC(=O)Nc1ccccc1Sc1ccccc1        15.1
3                     CCOC(=O)CCCCCC(=O)OCC         4.1
4  N#CSC1CCCCC1SC#N (configuration not stated)       -13.7
5           O=[N+]([O-])c1ccc(F)cc1C(F)(F)F       -10.2
6  O=C(/C=C/c1ccc(O)cc1)NCCc1c[nH]c2ccc(O)cc12        8.35

[ask] GET /values?readout=growth inhibition&item= O=S(=O)(Cl)c1cccc2cc3ccccc3cc12
[reply] -12.9

[ask] Here is the next molecule: O=C(O)CNC(=O)c1cccc(Cl)c1
[reply] 13.3

[ask] Similarly, CN(C)CCNC(=O)c1ccc(NC(=O)c2nc([N+](=O)[O-])cn2C)cc1 ?
[reply] -22.6

[ask] Also COC(=O)/C(C#N)=C/Sc1ccccc1 ?
[reply] 7.2

[ask] One more molecule: C#CCC1CCCC/C1=N\Nc1ccc([N+](=O)[O-])cc1[N+](=O)[O-] (configuration not stated)
[reply] -1.75

[ask] Ok, now O=C1/C(=C\c2ccc(O)cc2)CCC/C1=C/c1ccc(Cl)c(Cl)c1
[reply] 35.5

----------
# assay-comment: NCI Yeast Anticancer Drug Screen. Data for the mlh1 rad18 strain (AID 175)
# condition-description: S. cerevisiae mlh1 rad18 strain growth inhibition; at 50.0 µM
This is part of a sample that, as a whole, favours compounds with a hit. Of some 79,000 tested, about 15% had one in any assay. Active and inactive are the calls of the source. No stated cut-off is given here; in the data, active means growth inhibition above about 70%; inactive means the rest. *1 amine or outer side, *2 acyl side, *3 side chain or, on linkers, in order; H or OH if unused. Where a SMILES comes first, the peptide text is derived from it. Bridges are numbered along the chain shown (N, C = ends). Roman numbers before positions name the chains, in order. [ ]: non-standard residue; d: D form. Actinocin(1to9) = Cc1c2oc3c(C)ccc(C(=O)[*:2])c3nc-2c(C(=O)[*:1])c(N)c1=O; NMeY = CN[CH](Cc1ccc(O)cc1)C(=O)O; Sar = CNCC(=O)O
// classify into active, inactive

compound	class-label
CC(C)(C)c1ccc(C(O)(c2ccc(C(C)(C)C)cc2)c2ccc(C(C)(C)C)cc2)cc1	inactive
C[n+]1c2ccccc2c(Oc2c3ccccc3[n+](C)c3ccccc23)c2ccccc21	inactive
Nc1ncnc2c1N=C(c1ccccc1)CC(c1ccccc1)N2 (stereo unspecified)	inactive
CCOCCN1CCN(CCOCC)CC1	inactive

[ask] What is the recorded call for this compound in the test? CC1C2(c3ccccc3)C(C(=O)c3ccccc3)NC(c3ccccc3)C12c1ccccc1 (stereo unspecified)
[reply] inactive

[ask] And for COc1ccc(CC2C(=O)OC(C)C(NC(=O)c3c4nc5c(C(=O)NC6C(=O)NC(C(C)C)C(=O)N7CCCC7C(=O)N(C)CC(=O)N(C)C(Cc7ccc(OC)cc7)C(=O)OC6C)ccc(C)c5oc-4c(C)c(=O)c3N)C(=O)NC(C(C)C)C(=O)N3CCCC3C(=O)N(C)CC(=O)N2C)cc1 (stereo unspecified) (I: TVP[Sar][NMeY](Me) / II: TVP[Sar][NMeY](Me); ester I:1-I:C, II:1-II:C; linker I:N-II:N via Actinocin(1to9); configuration not given here) ?
[reply] inactive

----------
# assay-comment: NCI Yeast Anticancer Drug Screen. Data for the rad50 strain (AID 155);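 further: 0% = growth of vehicle-only cultures of the same strain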
# condition-description: S. cerevisiae rad50 strain growth inhibition; at 50.0 µM; hits give high values
This is part of a sample that, as a whole, favours compounds with a hit. Of some 79,000 tested, about 15% had one in any assay.
attribute-measured: growth inhibition (%)
Answer with a number only, understood to be in %.

Consider the reported growth inhibition for these molecules:
> print(dat)
                                   molecule  attribute.measured  value.units  test.value
1  CC1=CCCC(C)(C)C1/C=C/C(=O)O (configuration not stated)   growth inhibition            %        8.45
2  Nc1ncnc2c1ncn2C1CCC(CP(=O)(O)O)C1 (configuration not stated)   growth inhibition            %       -6.85
3  CC(=O)NC(C)c1ccc(N=NN2CCCC2)cc1 (configuration not stated)   growth inhibition            %        19.6

[ask] # input molecule: O=C1CCCC2=C1C(c1ccccc1)/C(=N/O)O2 (configuration not stated) ; wanted: its growth inhibition
[reply] 14.6

[ask] Ok, now CCC(=S)Nc1ccc(Cl)cc1
[reply] -1.9

[ask] Try this molecule next: O=c1[nH]c2cc(Cl)ccc2nc1/C=C(\O)c1ccccc1
[reply] 1.35

[ask] Repeat with CN(C)c1ccc(N=C(C#CC#Cc2ccccc2)c2ccccc2)cc1
[reply] 3.85

----------
# assay-comment: NCI Yeast Anticancer Drug Screen. Data for the bub3 strain (AID 167)
# condition-description: S. cerevisiae bub3 mutant strain, at 50.0 µM, hits give high values
This is part of a sample that, as a whole, favours compounds with a hit. Of some 79,000 tested, about 15% had one in any assay.
attribute-measured: growth inhibition (%)
Kindly provide the numeric value in % only, without the unit symbol.

> print(dat)
                                    molecule  test.value
 1  CCOC(=O)C1=C(Nc2ccc(F)cc2)C(=O)N(C(C)(C)C)C1        31.4
 2  CC(=O)OCC1OC(SC2=NC(=O)/C(=C/c3ccccc3)S2)C(OC(C)=O)C(OC(C)=O)C1OC(C)=O (stereo not given)        -4.1
 3  CC1OC(c2c(Cl)cccc2[N+](=O)[O-])OC1C (stereo not given)        -7.6
 4  COc1ccc2c3c(ccc2c1)C1CC(=O)CC1CC3 (stereo not given)          61
 5                               CC(C)C(N)=O        12.1
 6                       COc1ccc2nc(Cl)sc2c1        42.1
 7  CC(=O)Nc1ccc(-c2nnc(SCC(=O)Nc3ccccc3C)o2)cc1       -8.55
 8                   CC(=O)Oc1ccccc1C1CCCCC1       -11.9
 9      O=[N+]([O-])C(=C1NCCN1)C(Cl)=C(Cl)Cl        -1.2
10  CC1(CO)OC(n2cnc3c(N)ncnc32)C(O)C1O (stereo not given)       -14.7

[ask] Requested field: growth inhibition. Item: CCCCn1c(-c2ccccc2)cs/c1=N\NC(=O)Cn1c(C)nc2ccccc21
[reply] -3.25

[ask] Then this molecule: C1CCC(NCCNC2CCCCC2)CC1
[reply] -2.8

[ask] Same for CCOC(=O)c1cnc2c(ccc3ncccc32)c1Cl
[reply] 7

[ask] Ok, now Cn1c(N)c(NC(=O)CC#N)c(=O)n(C)c1=O
[reply] -9.85

The measured values listed here are drawn from PubChem BioAssay (NCI).
